test system: fungal tyrosinase; assay: In vitro test of inhibition of isolated fungal tyrosinase (L-dopa, dopachrome OD 490 nm); type: biochemical; settings: 10^−5M; 490 nm
Measured Parameter: Inhibition of fungal tyrosinase, percentage of inhibition, Mean 10^−5M (%)

Field: example entries. Status: answers known.
| Compound | Endpoint Value |
| --- | --- |
| O=C(/C=C/c1ccc(O)c(O)c1)NCCc1ccc(O)cc1 [Example 9, N-trans-caffeoyltyramine] | 13.06 |
| COc1cc(/C=C/C(=O)NCCc2ccc(O)cc2)ccc1O [Example 3, N-trans-feruloyltyramine] | 10.16 |
| COc1ccc(CCNC(=O)/C=C/c2ccc(O)c(O)c2)cc1OC [Example 12, N-trans-caffeoyl-3,4-dimethoxydopamine] | 20.26 |
| COc1cc(CNC(=O)/C=C/c2ccc(O)c(O)c2)ccc1O | 3.7 |
| COc1cc(/C=C/C(=O)NCCc2ccc(O)c(O)c2)ccc1O [Example 1, N-trans-feruloyldopamine] | 0 |

P. O=C(/C=C/c1ccc(O)c(O)c1)NCCc1ccc(O)c(O)c1 [Example 10, N-trans-caffeoyldopamine]
Q. COc1cc(/C=C/C(=O)NCc2ccc(O)c(OC)c2)ccc1O
*Q* Given the listed records, identify the one among P and Q with higher Inhibition of fungal tyrosinase, percentage of inhibition, Mean 10^−5M. Bench note: the answer is the label of the chosen record.
*A* P
